Tested on: S. uberis ATCC 19436
Experiment: MBC by Miles-Misra drop-plate method, S. uberis
Type: cell-based
Settings: Streptococcus uberis, ATCC19436, read-out: S. uberis ATCC 19436 MBC, No Zinc
Structures can show the parent of a compound that is named as a salt.
quantityName: MBC (µg/mL)
Quick note: give the figure in µg/mL, leave out the unit.

Field: example entries. Status: answers known.
| compound | MBC / µg/mL |
| --- | --- |
| O=S(=O)(Nc1cccc2ccc(CNCCCN3CCCCC3)nc12)c1ccc(C(F)(F)F)cc1 [ZDR115, di-trifluoroacetate] | 8 |
| N=C(N)NCc1ccc2cccc(NS(=O)(=O)c3ccc(C(F)(F)F)cc3)c2n1 [ZDR187, trifluoroacetate] | 16 |

Switching to the query record.
Task item: GET /values?readout=MBC&system=S. uberis ATCC 19436&item= CN(C)CCCNC(=O)CNCc1ccc2cccc(NS(=O)(=O)c3ccc(C(F)(F)F)cc3)c2n1 [ZDR261, di-trifluoroacetate]
Reply: 16

----------
Test system: E. coli ATCC 10536
Assay: MBC by Miles-Misra drop-plate method, E. coli
Assay type: cell-based
Settings: Escherichia coli, ATCC10536, read-out: E. coli ATCC 10536 MBC, Zinc (50 μM)
Counter-ions that a name gives are not always drawn.
Form field: MBC (one value per entry).
Quick note: give the figure in µg/mL, leave out the unit.

| compound | MBC, µg/mL |
| --- | --- |
| CN(C)CCCNCc1ccc2cccc(NS(=O)(=O)c3ccc(C(F)(F)F)cc3)c2n1 [ZDR090, di-trifluoroacetate] | 16 |
| N=C(N)NCCNCc1ccc2cccc(NS(=O)(=O)c3ccc(C(F)(F)F)cc3)c2n1 [ZDR143, di-trifluoroacetate] | 32 |
| N=C(N)NCc1ccc2cccc(NS(=O)(=O)c3ccc(C(F)(F)F)cc3)c2n1 [ZDR187, trifluoroacetate] | 16 |
| CN1CCN(CCNCc2ccc3cccc(NS(=O)(=O)c4ccc(C(F)(F)F)cc4)c3n2)CC1 [ZDR114, di-trifluoroacetate] | 64 |
| O=C(N/N=C/c1ccc2cccc(NS(=O)(=O)c3ccc(C(F)(F)F)cc3)c2n1)C1CCCNC1 (mixture of isomers) [ZDR124] | 32 |

Switching to the query record.
Task item: Returns the measured MBC for the input compound. Input: O=C(CNCc1ccc2cccc(NS(=O)(=O)c3ccc(C(F)(F)F)cc3)c2n1)NCCN1CCCCC1 [ZDR269, di-trifluoroacetate]
Reply: 64

----------
Tested on: S. uberis ATCC 19436
Assay: MBC by Miles-Misra drop-plate method, S. uberis
Assay type: cell-based
Details: Streptococcus uberis, ATCC19436, read-out: S. uberis ATCC 19436 MBC, No Zinc
Procedure: Antibacterial susceptibility testing was performed in triplicate (biological) by measuring minimum inhibitory concentrations (MICs) by broth microdilution in 96-well flat bottom microtiter plates (ThermoFisher Scientific, New Zealand). […] After 24 h incubation at 37° C. and 200 rpm, the OD600 of wells were read using a Varioskan Flash plate reader (ThermoFisher Scientific, New Zealand). […]
Structures can show the parent of a compound that is named as a salt.
quantityName: log10(MBC) (log10 of the value in µg/mL)
Friendly reminder: values = log10 of MBC, unit µg/mL.

| compound | log10(MBC) |
| --- | --- |
| O=C(CNCc1ccc2cccc(NS(=O)(=O)c3ccc(C(F)(F)F)cc3)c2n1)NCCN1CCCCC1 [ZDR269, di-trifluoroacetate] | 0.60 |
| CN(C)CCCNCc1ccc2cccc(NS(=O)(=O)c3ccc(C(F)(F)F)cc3)c2n1 [ZDR090, di-trifluoroacetate] | 0.90 |
| CN1CCN(CCCNCc2ccc3cccc(NS(=O)(=O)c4ccc(C(F)(F)F)cc4)c3n2)CC1 [ZDR117, di-trifluoroacetate] | 1.20 |
| CN1CCN(CCNCc2ccc3cccc(NS(=O)(=O)c4ccc(C(F)(F)F)cc4)c3n2)CC1 [ZDR114, di-trifluoroacetate] | 1.51 |
| N=C(N)NCCNCc1ccc2cccc(NS(=O)(=O)c3ccc(C(F)(F)F)cc3)c2n1 [ZDR143, di-trifluoroacetate] | 0.90 |

Task item: Returns the measured log10(MBC) for the input compound. Input: CN(C)CCCNC(=O)c1ccc2cccc(NS(=O)(=O)c3ccc(C(F)(F)F)cc3)c2n1 [ZDR224, trifluoroacetate]
Reply: 1.81

Task item: Consider next the compound O=C(N/N=C/c1ccc2cccc(NS(=O)(=O)c3ccc(C(F)(F)F)cc3)c2n1)C1CCCNC1 (mixture of isomers) in the same way.
Reply: 1.20
